Assayed System: human Gal-1 (hGal-1) (Homo sapiens (Human))
Sequence (P09382 whole entry): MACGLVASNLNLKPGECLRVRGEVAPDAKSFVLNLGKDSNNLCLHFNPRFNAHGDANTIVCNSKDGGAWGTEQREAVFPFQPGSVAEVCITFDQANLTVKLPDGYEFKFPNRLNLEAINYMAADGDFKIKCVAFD
Assign labels as follows, please: T for IC50 below 20 µM; F for IC50 equal to or exceeding 20 µM.

>>> class_label("CCO[C@@H]1[C@@H](n2cc(-c3cc(F)c(F)c(F)c3)nn2)[C@@H](O)[C@@H](CO)O[C@H]1S[C@@H](c1ncccc1C)C1(O)CCC(F)(F)CC1 [Example 2.44.126S.II.]")
"F"
>>> class_label("Cc1cccnc1[C@H](S[C@@H]1O[C@H](CO)[C@H](O)[C@H](n2cc(-c3cc(F)c(F)c(F)c3)nn2)[C@H]1O)C1(O)CCC(F)(F)CC1 [Example 2.44.126S.]")
"F"
>>> class_label("CO[C@@H]1[C@@H](n2cc(-c3cc(F)c(F)c(F)c3)nn2)[C@@H](O)[C@@H](CO)O[C@H]1S[C@H](c1nc(C)ccc1Cl)C1(O)CCC(F)(F)CC1 [Example 2.44.148R.I.]")
"T"
>>> class_label("Cc1conc1[C@@H](S[C@@H]1O[C@H](CO)[C@H](O)[C@H](n2cc(-c3cc(F)c(F)c(F)c3)nn2)[C@H]1O)C1(O)CCCCC1 [Example 2.39.120R.]")
"T"
>>> class_label("CO[C@@H]1[C@@H](n2cc(-c3cc(F)c(F)c(F)c3)nn2)[C@@H](O)[C@@H](CO)O[C@H]1S[C@H](c1ncccc1C)C1(O)CCC(F)(F)CC1 [Example 2.44.126R.I.]")
"T"
>>> class_label("OC[C@H]1O[C@@H](S[C@@H](c2ncccc2C(F)(F)F)C2(O)CCCC2)[C@H](O)[C@@H](n2cc(-c3cc(F)c(F)c(F)c3)nn2)[C@H]1O [Example 2.38.125S.]")
"T"

Q) Item CC(C)c1ccccc1[C@@H](S[C@@H]1O[C@H](CO)[C@H](O)[C@H](n2cc(-c3cc(F)c(F)c(F)c3)nn2)[C@H]1O)C1(O)CCC(F)(F)CC1 [Example 2.44.105R.] : IC50 beneath 20 µM, strictly?
A) T

Q) IC50 under 20 µM? Item: CCn1ncc(Cl)c1[C@H](S[C@@H]1O[C@H](CO)[C@H](O)[C@H](n2cc(-c3cc(F)c(F)c(F)c3)nn2)[C@H]1OC)C1(O)CCC(F)(F)CC1 [Example 2.44.139S.I.]
A) F

Q) IC50 under 20 µM? Item: CO[C@@H]1[C@@H](n2cc(-c3cc(F)c(F)c(F)c3)nn2)[C@@H](O)[C@@H](CO)O[C@H]1S[C@H](c1nc(C)c(C)nc1C)C1(O)CCC(F)(F)CC1 [Example 2.44.119R.I.]
A) T

Q) Below 20 µM on IC50? Entry OC[C@H]1O[C@@H](S[C@@H](c2nccnc2Cl)C2(O)CCC(F)(F)CC2)[C@H](O)[C@@H](n2cc(-c3cc(F)c(F)c(F)c3)nn2)[C@H]1O [Example 2.44.133S.]
A) T

* * *

Assayed System: UniProt:P17931
Method: competitive binding assay: biotinylated hGal-3 binding to microplate-adsorbed asialofetuin (ASF)
Test Conditions: Gal-3 inhibition; binding of biotinylated hGal-3 to ASF; mean values; read-out: IC50
Experimental: If not explicitly mentioned otherwise, the inhibition data refer to the binding of biotinylated human Gal-3 (hGal-3). Evaluation of Compound Inhibitory Activity (IC50) The inhibitory activity of compounds is determined in competitive binding assays. Briefly, compounds are serially diluted in DMSO (working dilutions). […] The calculated IC50 values may fluctuate depending on the daily assay performance. […]
IC50 strictly under 0.5 µM means 1; at 0.5 µM or over means 0.

Completed entries (count: 5):
>>> class_label("Cc1cccnc1[C@@H](S[C@@H]1O[C@H](CO)[C@H](O)[C@H](n2cc(-c3cc(F)c(F)c(F)c3)nn2)[C@H]1O)C1(O)CCC(F)(F)CC1 [Example 2.44.126R.]")
1
>>> class_label("CCCCCc1ccccc1C(S[C@@H]1O[C@H](CO)[C@H](O)[C@H](n2cc(-c3cc(F)c(F)c(F)c3)nn2)[C@H]1O)C(C)(C)O (stereo partly drawn) [Example 2.31.109.]")
0
>>> class_label("CC(C)(O)C(S[C@@H]1O[C@H](CO)[C@H](O)[C@H](n2cc(-c3cc(F)c(F)c(F)c3)nn2)[C@H]1O)c1ccccc1C1CC1 (stereo partly drawn) [Example 2.31.106.]")
1
>>> class_label("CC(C)(O)C(S[C@@H]1O[C@H](CO)[C@H](O)[C@H](n2cc(-c3cc(F)c(F)c(F)c3)nn2)[C@H]1O)c1ccccc1 (stereo partly drawn) [Example 2.31.100.]")
0
>>> class_label("Cc1ccccc1C(O)C(S[C@@H]1O[C@H](CO)[C@H](O)[C@H](n2cc(-c3cc(F)c(F)c(F)c3)nn2)[C@H]1O)c1ccccc1C(F)(F)F (stereo partly drawn) [Example 2.62.112.]")
0

Q) IC50 under 0.5 µM? Item: CC(C)c1ccccc1C(CO)S[C@@H]1O[C@H](CO)[C@H](O)[C@H](n2cc(-c3cc(F)c(F)c(F)c3)nn2)[C@H]1O (stereo partly drawn) [Example 2.30.105.]
A) 1

* * *

Please go through the items and note down their pIC50.
Assayed System: human Gal-3 (hGal-3) (Homo sapiens (Human), UniProt P17931)
Sequence (P17931 whole entry): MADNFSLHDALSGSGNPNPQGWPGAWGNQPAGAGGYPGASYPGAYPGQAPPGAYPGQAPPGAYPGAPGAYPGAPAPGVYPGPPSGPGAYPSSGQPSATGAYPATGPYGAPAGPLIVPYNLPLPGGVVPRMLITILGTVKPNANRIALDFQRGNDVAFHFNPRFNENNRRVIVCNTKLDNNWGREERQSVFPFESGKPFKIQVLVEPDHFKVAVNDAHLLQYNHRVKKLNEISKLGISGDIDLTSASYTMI
Method: competitive binding assay: biotinylated hGal-3 binding to microplate-adsorbed asialofetuin (ASF)
Test Conditions: Gal-3 inhibition; binding of biotinylated hGal-3 to ASF; mean values; read-out: IC50
One number for each entry, as −log10 of the molar value.

Solved cases below.
>>> numeric_readout("CS(=O)(=O)N1CC(O)([C@H](S[C@@H]2O[C@H](CO)[C@H](O)[C@H](n3cc(-c4cc(F)c(F)c(F)c4)nn3)[C@H]2O)c2ccccc2C(F)(F)F)C1 [Example 2..57.112R.]")
6.77
>>> numeric_readout("CC(C)Cc1ccccc1[C@H](S[C@@H]1O[C@H](CO)[C@H](O)[C@H](n2cc(-c3cc(F)c(F)c(F)c3)nn2)[C@H]1O)C(C)(C)O [Example 2.31.107S.]")
6.02
>>> numeric_readout("CCc1ccccc1C(S[C@@H]1O[C@H](CO)[C@H](O)[C@H](n2cc(-c3cc(F)c(F)c(F)c3)nn2)[C@H]1O)C(C)(C)O (some centres unmarked)")
6.52
>>> numeric_readout("CC(C)(O)[C@@H](S[C@@H]1O[C@H](CO)[C@H](O)[C@H](n2cc(-c3cc(F)c(F)c(F)c3)nn2)[C@H]1O)c1ccccc1-c1ccccc1 [Example 2.31.110S.]")
5.31

# next molecule below
Q) # input molecule: Cc1cccnc1[C@H](S[C@@H]1O[C@H](CO)[C@H](O)[C@H](n2cc(-c3cc(F)c(F)c(F)c3)nn2)[C@H]1O)C1(O)CCC(F)(F)CC1 [Example 2.44.126S.] ; wanted: its pIC50
A) 5.47

* * *

Assayed System: human Gal-1 (hGal-1) (Homo sapiens (Human))
Measure: IC50 (nM)
Give bare numbers, in nM.

I'm hoping you can list IC50 for every compound here, please.
1. CCn1nnc(C)c1[C@@H](S[C@@H]1O[C@H](CO)[C@H](O)[C@H](n2cc(-c3cc(F)c(F)c(F)c3)nn2)[C@H]1OC)C1(O)CCC(F)(F)CC1 [Example 2.44.138R.I.]
2. Cc1nc(C)c([C@@H](S[C@@H]2O[C@H](CO)[C@H](O)[C@H](n3cc(-c4cc(F)c(F)c(F)c4)nn3)[C@H]2O)C2(O)CCCCC2)nc1C [Example 2.39.119R.]
3. CCc1cccnc1C(S[C@@H]1O[C@H](CO)[C@H](O)[C@H](n2cc(-c3cc(F)c(F)c(F)c3)nn2)[C@H]1OC)C1(O)CCC(F)(F)CC1 (some centres unmarked) [Example 2.44.142.I.]
4. Cc1nc(C)c([C@@H](S[C@@H]2O[C@H](CO)[C@H](O)[C@H](n3cc(-c4cc(F)c(F)c(F)c4)nn3)[C@H]2O)C(C)(C)O)nc1C [Example 2.31.119R.]
5. CO[C@@H]1[C@@H](n2cc(-c3cc(F)c(F)c(F)c3)nn2)[C@@H](O)[C@@H](CO)O[C@H]1S[C@H](c1noc(C2CC2)c1C)C1(O)CCC(F)(F)CC1 [Example 2.44.145R.I.]
6. CC(C)c1ccccc1C(S[C@@H]1O[C@H](CO)[C@H](O)[C@H](n2cc(-c3cc(F)c(F)c(F)c3)nn2)[C@H]1O)C1(O)CCC(F)(F)CC1 (some centres unmarked) [Example 2.44.105.]
7. OC[C@H]1O[C@@H](S[C@H](c2ncccc2C(F)(F)F)C2(O)CCC(F)(F)CC2)[C@H](O)[C@@H](n2cc(-c3cc(F)c(F)c(F)c3)nn2)[C@H]1O [Example 2.44.125R.]

A)
1. 400
2. 730
3. 190
4. 1150
5. 1200
6. 80
7. 200

For each entry beneath this line, provide reported IC50.
1. CO[C@@H]1[C@@H](n2cc(-c3cc(F)c(Cl)c(F)c3)nn2)[C@@H](O)[C@@H](CO)O[C@H]1SC(c1ncccc1C)C1(O)CCC(F)(F)CC1 (some centres unmarked) [Example 11.44.126.I.]
2. CO[C@@H]1[C@@H](n2cc(-c3cc(F)c(F)c(F)c3)nn2)[C@@H](O)[C@@H](CO)O[C@H]1SC(c1ncccc1Cl)C1(O)CCC(F)(F)CC1 (some centres unmarked) [Example 2.44.137.I.]
3. Cc1cccnc1[C@H](S[C@@H]1O[C@H](CO)[C@H](O)[C@H](n2cc(-c3cc(F)c(F)c(F)c3)nn2)[C@H]1O)C1(O)CCOCC1 [Example 2.41.126S.]
4. CO[C@@H]1[C@@H](n2cc(-c3cc(F)c(F)c(F)c3)nn2)[C@@H](O)[C@@H](CO)O[C@H]1S[C@H](c1ncccc1C(F)(F)F)C1(O)CCC(F)(F)CC1 [Example 2.44.125R.I.]

A)
2430
4360
70400
260
